From: PubChem BioAssay AID588473

test system: CRF-binding protein / CRF receptor 2 complex (human); assay: agonists of CRF-BP/CRF-R2 complex, primary screen, cell-based, HEK293, calcium dye fluorescence, uHTS (AID 588473); conditions: calcium dye fluorescence (FLIPR), at 13.2 µM, hits give high values, percent of saturating CRF peptide response;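 also: plate controls were neutral control wells without compound for no effect and CRF at EC100 for full effect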
About 1,600 (0.46%) of roughly 350,000 compounds were called active. The sample as a whole holds a higher share of actives than the screen did.
Exercise: state measured activation for each of the compounds provided.
The reply should contain only the number, in %.

*Q* If you can, please state the reported activation value of CCN(CC)c1ccc(C(=O)N/N=C(\C)c2cccc(OC)c2)cc1 .
*A* 0.09

*Q* If you can, please state the reported activation value of N#CC1(NC(=O)COC(=O)CCN=C2NS(=O)(=O)c3ccccc32)CCCCC1 .
*A* 8.71

*Q* If you can, please state the reported activation value of COc1cccc2cc(C(N)=O)/c(=N\NC(=O)c3ccccc3)oc12 .
*A* -2.1

*Q* If you can, please state the reported activation value of COc1cc(/C=C2\CCCc3c2nc2ccccc2c3C(=O)O)cc(Cl)c1O .
*A* 0.27

*Q* If you can, please state the reported activation value of CCN(CC)c1ccc2cc(C(N)=O)/c(=N\NC(=O)c3ccncc3)oc2c1 .
*A* 264

*Q* If you can, please state the reported activation value of Cn1c(=O)c2c(nc(N3CCOCC3)n2CCNC2=NCCC2)n(C)c1=O .
*A* -1.41

*Q* If you can, please state the reported activation value of CCCCN1CCNC1=S .
*A* -0.03
